target: ETB receptor (Homo sapiens)
Sequence (P24530 27-442): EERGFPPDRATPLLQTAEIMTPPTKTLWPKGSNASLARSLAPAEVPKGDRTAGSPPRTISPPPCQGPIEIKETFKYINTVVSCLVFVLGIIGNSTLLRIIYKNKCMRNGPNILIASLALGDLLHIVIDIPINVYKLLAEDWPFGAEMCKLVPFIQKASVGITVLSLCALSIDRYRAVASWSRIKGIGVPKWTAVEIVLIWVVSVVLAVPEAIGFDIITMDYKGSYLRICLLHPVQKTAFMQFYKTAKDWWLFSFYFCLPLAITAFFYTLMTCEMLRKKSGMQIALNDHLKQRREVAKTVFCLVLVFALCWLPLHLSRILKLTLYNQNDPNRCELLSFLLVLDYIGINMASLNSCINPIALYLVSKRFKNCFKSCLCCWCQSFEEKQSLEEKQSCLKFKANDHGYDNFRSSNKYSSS
parameter-measured: IC50 (nM)
The response must be a number in nM with no trailing unit.

Query for ETB receptor (Homo sapiens): what IC50 does the record show for COc1ccccc1Oc1c(NS(=O)(=O)c2ccc(C(C)C)cn2)cc(C(=O)N2CCN(C)CC2)cc1OCCOC(=O)Nc1ccccn1 [Example 33] ?
440
